biological target: Sonic hedgehog protein (Homo sapiens)
Sequence (Q15465 24-197 limits assumed): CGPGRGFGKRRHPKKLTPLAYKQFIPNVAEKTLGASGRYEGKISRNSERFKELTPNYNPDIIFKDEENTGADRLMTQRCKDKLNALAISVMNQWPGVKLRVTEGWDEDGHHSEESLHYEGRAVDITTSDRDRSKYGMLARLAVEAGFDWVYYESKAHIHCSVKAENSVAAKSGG
ASSAY ENDPOINT: Kd
Remember to quote the unit after the number.

What Kd value was documented for this molecule, O=C(C[C@@H]1C/C=C/CCC(=O)O[C@H](c2ccccc2)CNC1=O)NCc1ccc(Cl)cc1 ? 3.1 µM
